- TESTED_SYSTEM: T1, human IL-4Rα on TF-1 cells (human, UniProt P24394 26-825)
- T1 sequence (looked up): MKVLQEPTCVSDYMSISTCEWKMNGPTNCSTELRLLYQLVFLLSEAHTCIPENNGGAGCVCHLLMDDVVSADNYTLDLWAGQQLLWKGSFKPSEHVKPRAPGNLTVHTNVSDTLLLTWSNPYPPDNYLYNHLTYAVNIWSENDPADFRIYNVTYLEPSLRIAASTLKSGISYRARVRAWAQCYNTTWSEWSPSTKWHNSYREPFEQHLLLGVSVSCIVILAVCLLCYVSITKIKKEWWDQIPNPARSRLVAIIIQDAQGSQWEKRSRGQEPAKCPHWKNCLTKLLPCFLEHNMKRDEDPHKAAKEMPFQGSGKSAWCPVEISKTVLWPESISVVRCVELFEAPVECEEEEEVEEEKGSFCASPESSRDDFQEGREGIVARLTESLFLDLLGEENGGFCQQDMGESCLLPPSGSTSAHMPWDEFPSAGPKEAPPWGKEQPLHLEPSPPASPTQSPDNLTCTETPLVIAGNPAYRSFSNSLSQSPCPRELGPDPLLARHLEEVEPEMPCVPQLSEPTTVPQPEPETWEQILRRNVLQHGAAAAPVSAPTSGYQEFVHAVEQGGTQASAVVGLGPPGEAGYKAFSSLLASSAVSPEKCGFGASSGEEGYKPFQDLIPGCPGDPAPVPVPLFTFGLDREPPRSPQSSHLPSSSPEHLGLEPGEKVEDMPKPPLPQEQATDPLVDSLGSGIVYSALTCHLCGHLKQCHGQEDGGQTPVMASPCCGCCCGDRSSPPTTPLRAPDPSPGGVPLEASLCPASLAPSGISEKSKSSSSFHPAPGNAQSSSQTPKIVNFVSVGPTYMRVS
- ASSAY_METHOD_TEXT: cell-based or functional assay
Assignment: determine reported IC50 (pM), IL-4 induced TF-1 cell proliferation for the given binders.
Express the result in pM but write the number alone.

Field request: IC50 (pM), IL-4 induced TF-1 cell proliferation | item: Antibody 14 IgG (antibody, V domains shown) VH: QVQLVQSGAEVKKPGASVKVSCKASGYAFTSYYMHWARQAPGQGLEWMGIINPSGGSTSYAQKFQGRVTMTRDTSTSTVYMELSSLRSEDTAVYYCARGKWWLYNWGKGTLVTVSS VL: QSVLTQPPSVSAAPGQKVTISCSGGSSNIGNSYVSWYQQLPGTAPKLLIYDNNKRPSGIPDRFSGSKSGTSATLAITGLQTGDEADYYCGTWDTSPPTKPLFGTGTKLTVL 3.8

Field request: IC50 (pM), IL-4 induced TF-1 cell proliferation | item: Antibody 20 IgG (antibody, V domains shown) VH: QVQLVQSGAEVKKPGASVKVSCKASGYAFTSYYMHWARQAPGQGLEWMGIINPSGGSTSYAQKFQGRVTMTRDTSTSTVYMELSSLRSEDTAVYYCARGKYWMYDWGKGTLVTVSS VL: QSVLTQPPSVSAAPGQKVTISCSGGSSNIGNSYVSWYQQLPGTAPKLLIYDNNKRPSGIPDRFSGSKSGTSATLAITGLQTGDEADYYCGTWDTSTVWEWPFGTGTKLTVL 31.1
